Sourced from PubChem BioAssay (NCI)

Collected growth values appear next to each entry.
# System: U251 CNS
# Experiment notes: NCI-60 one-dose screen, 48 h (100 = growth as untreated, 0 = no growth, -100 = all killed)
# Assay conditions: 10 µM unless noted
About 83,000 compounds went through this panel and 20% of them were active in at least one assay; those are over-represented in the sample as a whole.
Report as a plain number; the unit % is understood.

Solved cases below.
Tell me its growth given CC(C)=CCC[C@](C)(O)[C@H]1CC[C@]2(C)[C@@H]1CC[C@@H]1[C@@]3(C)Cc4nccnc4C(C)(C)[C@@H]3CC[C@]12C as the entry. 78.2

Tell me its growth given O=C1/C(=C/c2ccc(-c3ccc(Br)cc3)o2)SC(=S)N1CCc1ccc(O)cc1 as the entry. 78.9

Continuing:
Tell me its growth given O=C(OCc1ccc2c(Cl)cc(Cl)c(O)c2n1)n1cncn1 as the entry. 16.3

Tell me its growth given COc1cc(-c2nc(SCCC(C)C)nc(Nc3ccccc3Cl)c2C#N)cc(OC)c1OC as the entry. 106

Tell me its growth given CC(C)=NNc1ccccn1 as the entry. 39.6

====

Collected growth values appear next to each entry.
# System: SW-620 colon
# Experiment notes: NCI-60 one-dose screen, 48 h (100 = growth as untreated, 0 = no growth, -100 = all killed)
# Assay conditions: 10 µM unless noted
Compounds without any hit were thinned out: in the full panel of roughly 83,000, 20% have a hit.
Report as a plain number; the unit % is understood.

Tell me its growth given CCOc1nc(-c2ccccc2)cc2c(O)c(C(=O)NN)[nH]c(=O)c12 as the entry. 97.4

Continuing:
Tell me its growth given CCCCC(=O)Nc1ncc(Cc2ccc(Cl)cc2)s1 as the entry. 37.7

Tell me its growth given O=C(O)c1[nH]c(=O)[nH]c(=O)c1[N+](=O)[O-] as the entry. 109

Tell me its growth given CCOC(=O)c1nc(Nc2ccc(NC(=O)Nc3ccc(F)cc3)cc2)c2ccccc2n1 as the entry. 96.9

Tell me its growth given CCCCN1C(=O)/C(=c2\sc3n(c2=O)C2C(NN=3)N(CC)C(=O)N2CC)c2ccccc21 (configuration not stated) as the entry. 28.3

Tell me its growth given C[C@H](NC(=O)[C@@H](C)N)[C@H](Oc1ccc2c(cnn2-c2ccc(F)cc2)c1)c1ccc2c(c1)OCCO2 as the entry. 62

Tell me its growth given C=C1C(=O)O[C@H]2[C@H]1CC/C(COC(=O)N[C@H]1C[C@H](O[C@H]3C[C@](O)(C(=O)CO)Cc4c(O)c5c(c(O)c43)C(=O)c3c(OC)cccc3C5=O)O[C@@H](C)[C@H]1O)=C\CC[C@@]1(C)O[C@@H]21 as the entry. 1.42

====

# Test system: SF-268 CNS
# Experiment notes: NCI-60 one-dose screen, 48 h
# Assay conditions: 10 µM unless noted
This is part of a sample that, as a whole, favours compounds with a hit. Of some 83,000 tested, about 20% had one in any assay. Activity calls are given as the source filed them. Rule for the calls: active = growth percent below 10; inactive = the rest.
Output constraint: value belongs to T (active), F (inactive)

These recorded examples may help you get a feel for the data.
Recorded test outcome, item C=C(C)[C@@H]1CC[C@]2(C(=O)OC)CC[C@]3(C)[C@H](CC[C@@H]4[C@@]5(C)C/C(=C/NC(N)=S)C(=O)C(C)(C)[C@@H]5CC[C@]43C)[C@@H]12 F

Recorded test outcome, item C1=CN2CC(c3ccccc3)=NNC2c2ccccc21 (stereo unspecified) F

Recorded test outcome, item O=C(/C=C/c1cn(-c2ccccc2)nc1-c1ccc([N+](=O)[O-])cc1)c1ccc(Cl)cc1 F

Recorded test outcome, item CCCCCCCCCCCCCCCC(N)c1ccccc1 (stereo unspecified) T

Recorded test outcome, item COc1cc(NC(C)CCCNC(C)C)c2ncccc2c1OC (stereo unspecified) F

Recorded test outcome, item C=C(C)[C@@H]1CC[C@]2(C(=O)NCCNCCN)CC[C@]3(C)[C@H](CC[C@@H]4[C@@]5(C)C/C(=C/c6ccncc6)C(=O)C(C)(C)[C@@H]5CC[C@]43C)[C@@H]12 F

Recorded test outcome, item O=C(CI)NC1Oc2ccccc2-c2oc(=O)c(-c3ccccc3)cc21 (stereo unspecified) T

Recorded test outcome, item O=C(CSc1nc2ccc([N+](=O)[O-])cc2[nH]1)Nc1ccc(F)cc1 F

Recorded test outcome, item CC(=O)Nc1nc2ccc(NS(=O)(=O)c3cccc4c(N(C)C)cccc34)cc2[nH]1 F

Recorded test outcome, item Cc1oc(-c2ccc(Cl)cc2)nc1/C=C/C(=O)c1ccccc1 F

Continuing:
Recorded test outcome, item CN1CCN(C(=O)c2ccc(NC(=O)Nc3ccc(-c4nc(N5CCOCC5)c5cccn5n4)cc3)cc2)CC1 T

Recorded test outcome, item CC1(C)CC[C@]2(c3nnc(-c4ccncc4)o3)CC[C@H]3C(=CC[C@H]4[C@@]3(C)CC[C@H]3C(C)(C)C(=O)CC[C@]43C)[C@@H]2C1 F

Recorded test outcome, item C=CCn1c(SCC(=O)Nc2ccc(C(=O)/C=C/c3ccc(Cl)cc3)cc2)nnc1-c1cc(-c2ccc(S(N)(=O)=O)cc2)nc2ccccc12 F

Recorded test outcome, item Cc1ccccc1/C=C1\CN(C(=O)OC(C)(C)C)C/C(=C\c2ccccc2C)C1=O T

Recorded test outcome, item COC1=CC(c2ccc[nH]2)=N/C1=C\c1[nH]c(C)c(C(=O)OCc2ccccc2)c1C T

Recorded test outcome, item O=C1/C(=C/c2ccc(Cl)cc2)COc2ccc(O)cc21 F

Recorded test outcome, item N#CC1=C(N)Oc2c(sc3c(F)cccc23)C1c1ccc(F)cc1 (stereo unspecified) F

Recorded test outcome, item O=C1Nc2ccc(I)cc2C1=O F

Recorded test outcome, item O=C(Cn1c(=O)sc2nc3ccccc3nc21)Nc1ncc(Cc2cccc(Cl)c2Cl)s1 F

Recorded test outcome, item O=C(Nc1ncc(Cc2ccc(Cl)c(C(F)(F)F)c2)s1)c1ccc2nnsc2c1 F

Recorded test outcome, item CCCC(O)Cn1ncc(C(=O)OCC)c1NC(=O)NCc1ccccc1F (stereo unspecified) F
